Items are presented alongside their recorded pKd.
- Test Name: Binding affinity against bacterial 16S rRNA using mass spectrometry based assay
- Parameters: species or system Escherichia coli
pKd: −log10 of the molar value.

[
  {
    "Compound": "CN(CCCCN(C)CC(O)CO[C@H]1O[C@H](CN)[C@@H](O)[C@H](O)[C@H]1N)CC(O)CO[C@@H]1O[C@H](CN)[C@@H](O)[C@H](O)[C@H]1N (some centres undefined)",
    "pKd": 4.80
  },
  {
    "Compound": "C=CCO[C@H]1O[C@H](CN)C(O)[C@H](O)[C@H]1N (some centres undefined)",
    "pKd": 3.49
  },
  {
    "Compound": "CN(CCN(C)CC(O)CO[C@H]1O[C@H](CN)[C@@H](O)[C@H](O)[C@H]1N)CC(O)CO[C@@H]1O[C@H](CN)[C@@H](O)[C@H](O)[C@H]1N (some centres undefined)",
    "pKd": 4.70
  },
  {
    "Compound": "C=CCO[C@H]1O[C@H](CO)[C@@H](O)[C@H](O)[C@H]1N",
    "pKd": 2.80
  }
]
